Test system: Escherichia coli
assay.name: Inhibition of recombinant Escherichia coli O104:H4 Beta-1,3-galactosyltransferase WbwC expressed in Escherichia coli BL21 at 0.5 mM in presence of UDP-[3H]Gal and GalNAC-PO3-PO3-(CH2)11-O-phenyl after 1 hr by scintillation counting method relative to control
# label = true if inhibition >= 90% else false

CCCCCCCCC[n+]1ccn(CCCCCCCCCCn2cc[n+](CCCCCCCCC)c2)c1 :: true
CCCCCCCC[n+]1ccn(CCCCCCCCCCCCCCCCn2cc[n+](CCCCCCCC)c2)c1 :: true
C[n+]1ccn(CCCCCCCCn2cc[n+](C)c2)c1 :: false

As a next step, examine the molecule that follows.
In plain terms: is recorded inhibition at least 90% for CCCCCCCC[n+]1ccn(CCCCCCCCCCn2cc[n+](CCCCCCCC)c2)c1 ?
false

###

Tested on: Escherichia coli
assay.name: Inhibition of recombinant Escherichia coli O104:H4 Beta-1,3-galactosyltransferase WbwC expressed in Escherichia coli BL21 at 0.5 mM in presence of UDP-[3H]Gal and GalNAC-PO3-PO3-(CH2)11-O-phenyl after 1 hr by scintillation counting method relative to control
measurement.kind: inhibition

Take a look at these entries with their results.
CS(=O)(=O)[O-].CS(=O)(=O)[O-].C[n+]1ccn(CCCCCCCCCCCCCCCCCCCCn2cc[n+](C)c2)c1 :: 91%
CCCCCCCCCCCC[n+]1ccn(CCCCCCCCCCn2cc[n+](CCCCCCCCCCCC)c2)c1 :: 91%
CCCCCCCCCC[n+]1ccn(CCCCCCn2cc[n+](CCCCCCCCCC)c2)c1 :: 92%

Lookup: inhibition / Escherichia coli / CCCCCC[n+]1ccn(CCCCCCCCCCCCCCCCn2cc[n+](CCCCCC)c2)c1
88%
